Header: IC50 / Poly [ADP-ribose] polymerase tankyrase-1 (Homo sapiens, UniProt O95271) / multiple publications
Measurement name: IC50 (nM)

# example entries with known answers
>>> numeric_value("O=C(c1ccc(F)cc1)C1CCN(CC(=O)N(Cc2ccccc2)Cc2nc3c(c(=O)[nH]2)COCC3)CC1")
82
>>> numeric_value("CC1(C(=O)N2CCC(C3Cc4[nH]c(=O)c5ccccc5c4CO3)CC2)CC1 (racemic)")
33.2
>>> numeric_value("COC(C)(C)CNC(=O)c1nc[nH]c1C(=O)N[C@H]1CC[C@H](C(=O)Nc2cc(F)c(F)cc2Cl)CC1")
49
>>> numeric_value("COc1ccc(-c2cnn(C3CCN(CC(=O)NCc4nc5c(c(=O)[nH]4)COCC5)CC3)c2)cc1")
3800
>>> numeric_value("O=C(N[C@H]1CC[C@H](C(=O)Nc2ccc(F)cc2Cl)CC1)c1[nH]cnc1C(=O)N1CC(F)(F)C1")
55
>>> numeric_value("O=C(CN1CCC(c2n[nH]c3cc(F)ccc23)CC1)NCc1nc2c(c(=O)[nH]1)COCC2")
1210
>>> numeric_value("CNC(=O)c1[nH]cnc1C(=O)NC1CCC(C(=O)Nc2ccc(F)cc2Cl)CC1C (racemic)")
380
>>> numeric_value("O=C(NC[C@H]1CCCO1)c1nc[nH]c1C(=O)N[C@H]1CC[C@H](C(=O)Nc2c(F)cc(F)cc2Cl)CC1")
78
>>> numeric_value("Cc1cc(C)n2ncc(C(=O)NC3CCC(C(=O)Nc4ccc(F)cc4Cl)CC3C)c2n1 (stereo not drawn)")
120
>>> numeric_value("Cn1ccc2c(=O)[nH]c(N3CCN(c4ccccc4)CC3)nc21")
43

[P] CS(=O)(=O)N1CCC(C2Cc3[nH]c(=O)c4ccccc4c3CO2)CC1 (racemic)
[Q] COC(=O)c1cc(C)nc2c(C(=O)N[C@H]3CC[C@H](C(=O)Nc4ccc(F)cc4Cl)CC3)cnn12
[R] CC(C)C1Cc2[nH]c(=O)c3ccc(C(N)=O)cc3c2CO1 (racemic)
Rank ascending by IC50. Output spec: labels arranged per the requested ranking.
P, R, Q

* * *

Header: IC50 / Poly [ADP-ribose] polymerase tankyrase-1 (Homo sapiens) / multiple publications
Measurement name: IC50 (nM)

>>> numeric_value("O=C(NCC(F)(F)F)c1nc[nH]c1C(=O)N[C@H]1CC[C@H](C(=O)Nc2ccc(F)cc2Cl)CC1")
37
>>> numeric_value("O=C(C1CC1)N1CCC(C2Cc3[nH]c(=O)c4ccccc4c3CO2)CC1 (racemic)")
36.5
>>> numeric_value("Cn1ccc2c(=O)[nH]c(N3CCC(c4ccccc4)C3)nc21 (centres unmarked)")
915

[A] O=C(N[C@H]1CC[C@@]2(CCN(c3cccc(Cl)c3)C2=O)CC1)c1[nH]cnc1C(=O)N1CCOCC1
[B] Cc1cc(C)n2ncc(C(=O)N[C@H]3CC[C@H](C(=O)Nc4c(F)cc(F)cc4Cl)CC3)c2n1
[C] O=C(CN1CCC(c2nnc(-c3ccccc3)o2)CC1)NCc1nc2c(c(=O)[nH]1)COCC2
[D] CNC(=O)c1nc[nH]c1C(=O)N[C@H]1CC[C@H](C(=O)N(C)c2ccccc2)CC1
Rank ascending by IC50. Output spec: labels arranged per the requested ranking.
B, D, C, A

* * *

Header: pIC50 / Poly [ADP-ribose] polymerase tankyrase-1 (Homo sapiens, UniProt O95271) / multiple publications
pIC50: −log10 of the molar value.
Measurement name: pIC50

# example entries with known answers
>>> numeric_value("O=C(NCCN1CCOCC1)c1nc[nH]c1C(=O)N[C@H]1CC[C@H](C(=O)Nc2ccc(F)cc2Cl)CC1")
8.00
>>> numeric_value("Cc1cc(C)n2ncc(C(=O)N[C@H]3CC[C@@]4(CCN(c5ccc(F)cc5Cl)C4=O)CC3)c2n1")
7.96
>>> numeric_value("CC(C)(C)C1Cc2[nH]c(=O)c3sccc3c2CO1 (racemic)")
7.49
>>> numeric_value("COC(C)CNC(=O)c1nc[nH]c1C(=O)N[C@H]1CC[C@H](C(=O)Nc2ccc(F)cc2Cl)CC1 (stereo partly drawn)")
7.00
>>> numeric_value("COC[C@@H](C)NC(=O)c1nc[nH]c1C(=O)N[C@H]1CC[C@H](C(=O)Nc2ccc(F)cc2Cl)CC1")
6.43
>>> numeric_value("O=C(c1ccc(Cl)cc1)C1CCN(CC(=O)N(Cc2nc3c(c(=O)[nH]2)COCC3)CC(F)F)CC1")
7.46

[P] Cn1ccc2c(=O)[nH]c(N3CCN(c4cccc(C#N)c4)CC3)nc21
[Q] COCc1cc(C)n2ncc(C(=O)N[C@H]3CC[C@H](C(=O)Nc4c(F)cc(F)cc4Cl)CC3)c2n1
From the recorded data, which exceeds the other in pIC50: P or Q ? Reply briefly: the label of your chosen item.
P
(P: 7.09, Q: 6.82)

[A] Cc1cccc2c(=O)[nH]c3c(c12)COC(C1CCOCC1)C3 (racemic)
[B] O=C(N[C@H]1CC[C@H](C(=O)Nc2c(F)cc(F)cc2Cl)CC1)c1cnc2cccnn12
Which of these two has the smaller recorded pIC50: A or B ? Reply briefly: the label of your chosen item.
B
(B: 6.85, A: 7.62)
